# system: D2LR (Homo sapiens, UniProt P14416)
# Sequence (P14416 whole entry): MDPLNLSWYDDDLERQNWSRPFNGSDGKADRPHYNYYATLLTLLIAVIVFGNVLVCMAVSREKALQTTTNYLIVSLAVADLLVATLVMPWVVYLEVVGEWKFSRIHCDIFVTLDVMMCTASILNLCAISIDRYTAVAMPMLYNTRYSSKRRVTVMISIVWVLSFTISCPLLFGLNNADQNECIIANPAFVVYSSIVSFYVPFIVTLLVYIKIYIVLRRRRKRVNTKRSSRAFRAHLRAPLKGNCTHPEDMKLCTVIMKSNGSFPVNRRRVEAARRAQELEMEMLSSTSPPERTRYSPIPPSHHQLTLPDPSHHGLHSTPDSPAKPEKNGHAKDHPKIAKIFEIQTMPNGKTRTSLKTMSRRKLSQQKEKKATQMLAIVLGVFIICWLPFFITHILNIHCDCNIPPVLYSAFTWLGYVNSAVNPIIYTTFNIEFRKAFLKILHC
# protocol.notes: GαoB G protein activation (BRET)
# Type: cell-based
# Design: expressed in transfected cells
# condition.details: 10 min
property.label: EC50 (nM)
Report as a plain number; the unit nM is understood.

1) CCCN(CCC)CCc1cccc2c1CC(=O)N2; 67.6

Okay, next one:
Q) Supply recorded EC50 for O=c1[nH]c2cccc(N3CCN(Cc4cccc(-c5ccccc5)c4)CC3)c2o1 here.
A) 12.9

---

Reported pEC50 values are given for each entry in this list.
# system: D2LR (Homo sapiens)
# protocol.notes: GαoB G protein activation (BRET)
# Type: cell-based
# Set-up: expressed in transfected cells
# condition.details: 5 min
Notebook: values listed as pEC50 are -log10 of the concentration (mol/L).

Q) Give the reported pEC50 for this compound. CCCN(CCC)CCc1cccc2c1CC(=O)N2
A) 7.02

Q) For the compound O=c1[nH]c2cccc(N3CCN(Cc4cccc(-c5ccccc5)c4)CC3)c2o1 , give its measured pEC50 value.
A) 7.57

---

# system: D2LR (Homo sapiens, UniProt P14416)
# protocol.notes: GαoB G protein activation (BRET);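 further: Flp-In-CHO cells stably expressing D2LR, transiently transfected, agonist-stimulated in HBSS at 37 °C, net BRET read after coelenterazine, vehicle control subtracted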
# Format: cell-based
# Design: expressed in transfected cells
# condition.details: 15 min
property.label: EC50 (nM)
State the answer as a number, implicitly in nM.

Q) Find the measured EC50 of O=c1[nH]c2cccc(N3CCN(Cc4cccc(-c5ccccc5)c4)CC3)c2o1 and report it.
A) 7.59
